pIC50: −log10 of the molar value.
The entries that follow carry pIC50 values tested on Seed linoleate 13S-lipoxygenase-1 (Glycine max), drawn from several published reports.
measurement.type: pIC50

Worked examples, 6 compounds total:
COc1ccc(/C=C/C(=O)NNC(=O)NCCCC(C)Nc2cc(OC)cc3cccnc23)cc1 (stereo not drawn)	4.30
O=C(COc1ccc2oc(=O)ccc2c1)NCCc1ccccc1	5.00
O=C(COc1ccc2ccc(=O)oc2c1)NCCc1ccccc1	5.00
O=C(O)C(=Cc1cccc(Oc2ccccc2)c1)c1ccc(Br)cc1	4.00
CC(=NNC(=O)c1ccc(O)cc1)c1c(O)c2ccccc2oc1=O	4.15
CN1CCN(c2nc(N3CCN(C)CC3)c3nccnc3n2)CC1	5.30

a: Cc1ccc(NC(=O)c2c(O)c3ccccc3n(C)c2=O)cc1
b: CC(C)(C)c1cc(C=C(C(=O)O)c2ccc(O)cc2)c(O)c(C(C)(C)C)c1
Would you let me know which has the greater pIC50 value, a or b ? State your choice using its label. a
(a: 4.35, b: 4.13)

====

Values of IC50 for Seed linoleate 13S-lipoxygenase-1 (Glycine max), collected from a number of published sources:
measurement.type: IC50 (µM)

Example cases with answers are listed next.
COc1cc(NC(C)CCCNC(=O)NNC(=O)/C=C/c2ccc(OC)c(OC)c2)c2ncccc2c1 (stereo not drawn)	10
COc1cc(NC(C)CCCNC(=O)NNC(=O)/C=C/c2ccccc2F)c2ncccc2c1 (stereo not drawn)	41
CC(=O)NN=C(C)c1c(O)c2ccccc2oc1=O	62.5

1: CC(=NNC(=O)c1ccc(Cl)cc1)c1c(O)c2ccccc2oc1=O
2: CC(C)N(CC(O)COc1cccc2ccccc12)C(=O)/C=C/c1cccc(Oc2ccccc2)c1 (stereo not drawn)
Of 1 and 2 , whose reported IC50 is numerically smaller? Select an item and report its label. 2
(2: 6 µM, 1: 55 µM)

====

Values of IC50 for UniProt:P08170, collected from a number of published sources:
measurement.type: IC50 (µM)

Cn1c(=O)c(C(=O)Nc2ccc(O)cc2)c(O)c2ccccc21	49

P: N#Cc1ccc(C=C(C(=O)O)c2ccccc2)cc1
Q: CC1CCCCC1NC(=O)c1c(O)c2ccccc2n(C)c1=O (stereo not shown)
Which of these two has the smaller recorded IC50: P or Q ? Reply briefly: the label of your chosen item. Q
(Q: 10 µM, P: 60 µM)

I: O=C(O)C(=Cc1cccc(Oc2ccccc2)c1)c1ccc(O)cc1
II: Cc1ccccc1NC(=O)c1c(O)c2ccccc2n(C)c1=O
III: C/[N+]([O-])=C/Cn1cc(Br)c(=O)[nH]c1=O
Sort entries by IC50 from minimum to maximum value. Submit the labels in the order that the ranking request calls for. III, I, II

A: CC(C)(C)c1cc(C=C(C(=O)O)c2ccc(Br)cc2)cc(C(C)(C)C)c1O
B: CC(=NNC(=O)c1ccccc1[N+](=O)[O-])c1c(O)c2ccccc2oc1=O
Given A and given B , which shows the smaller recorded IC50? Could you answer with the label of the item you picked? B

====

IC50 for Seed linoleate 13S-lipoxygenase-1 (Glycine max, UniProt P08170), merged from several publications.
measurement.type: IC50 (µM)

C/[N+]([O-])=C/Cn1cc(Cl)c(=O)[nH]c1=O	65
COc1cc(NC(C)CCCNC(=O)NNC(=O)/C=C/c2ccc(Cl)cc2)c2ncccc2c1 (stereo not shown)	70
C/[N+]([O-])=C/Cn1cc(F)c(=O)[nH]c1=O	28

I: Cn1c(=O)c(C(=O)NCCO)c(O)c2ccccc21
II: Cc1nc2nc(N3CCN(C)CC3)nc(N)c2nc1C
Consider I and II . Which of these has its IC50 at a higher number? State your choice using its label. II

I: O=C(N/C(=C\c1ccccc1)C(=O)N1CCOCC1)c1ccccc1
II: CC(=NNC(=O)c1ccc(N)cc1)c1c(O)c2ccccc2oc1=O
III: O=C(Nc1ccc(F)cc1)c1c(O)c2ccccc2n(-c2ccccc2)c1=O
Exam item: list the entries in increasing order of IC50. Provide your answer as the labels ordered per the instruction. III, II, I

I: O=C(O)C(=Cc1ccc(OCc2ccc(Br)cc2)cc1)c1ccc(O)cc1
II: CC(C)N(C[C@H](O)COc1cccc2ccccc12)C(=O)/C=C/c1cccc(Oc2ccccc2)c1
III: O=C(N/C(=C\c1cccs1)C(=O)N1CCN(C(=O)/C(=C/c2cccs2)NC(=O)c2ccccc2)CC1)c1ccccc1
Sequence the entries by IC50, beginning with the highest number. Thanks in advance for listing the labels in the requested order. I, III, II
(I: 77 µM, III: 41 µM, II: 6 µM)

I: Cn1c(=O)c(C(=O)Nc2ccccc2O)c(O)c2ccccc21
II: CC(=NNC(=O)c1ccccc1O)c1c(O)c2ccccc2oc1=O
Hey, between I and II which has a smaller measured IC50? Response format: the label of the selected entry. II

A: O=C(NCCc1ccc(O)cc1)c1c(O)c2ccccc2n(-c2ccccc2)c1=O
B: CN(C)c1ccc(C=CC=C(C(=O)O)c2ccc(Br)cc2)cc1
Quick one: lower IC50, A or B ? Give the label of your selection. B
